Reported melting point values follow for various molecules

Molecule	melting point
CCNC(=O)Nc1ccc(-c2sc3c(c2CN(C)Cc2ccccn2)c(=O)n(-c2ccc(F)cc2)c(=O)n3Cc2c(F)cccc2F)cc1 [Example 114]	243 to 244 °C
CCNC(=O)Nc1ccc(-c2sc3c(c2CN(C)CCC(=O)NC)c(=O)n(-c2ccc(OCCOC)cc2)c(=O)n3Cc2c(F)cccc2F)cc1 [Example 31]	163 to 165 °C
CCNC(=O)Nc1ccc(-c2sc3c(c2CN(C)CCOC)c(=O)n(-c2ccc(N)cc2)c(=O)n3Cc2c(F)cccc2F)cc1 [Example 97]	205 to 207 °C
CCNC(=O)Nc1ccc(-c2sc3c(c2CN(C)CCOC(C)C)c(=O)n(-c2ccccc2)c(=O)n3Cc2c(F)cccc2F)cc1 [Example 110]	224 °C

Then this molecule:
melting point in this record for CCNC(=O)Nc1ccc(-c2sc3c(c2CNCCOCC)c(=O)n(-c2ccccc2)c(=O)n3Cc2c(F)cccc2F)cc1 [Example 3] : 211 to 213 °C

Hello, the source for this data is patent US7569570B2, in case you need it.
